tested on: UACC-62 melanoma; assay: NCI-60 one-dose screen, 48 h (100 = growth as untreated, 0 = no growth, -100 = all killed); details: 10 µM unless noted
About 83,000 compounds went through this panel and 20% of them were active in at least one assay; those are over-represented in the sample as a whole. Activity calls are given as the source filed them. The calls were made as follows: active = growth percent below 10; inactive = the rest.
MEASURED_ATTRIBUTE: growth

{"COMPOUND": "Cc1ccc(S(=O)(=O)c2nc(S(=O)(=O)c3ccc(C)cc3)c(N3CCN(C)CC3)s2)cc1", "growth": "48% (inactive)"}

Request the reported growth associated with CCS(=O)(=O)N1CCCC(C(=O)Nc2nc3ccc(NC(=O)c4ccc(F)c(OC)c4F)cc3s2)C1 (stereo not drawn) 58.2% (inactive)

Request the reported growth associated with COC(OC)C1=C(C)OC(N)=C(C#N)C12C(=O)Nc1ccccc12 (stereo not drawn) 81.1% (inactive)
